B1: Far upstream element-binding protein 1, residues 184 to 257; numbered along this chain, Q96AE4 (parent)
chain: GNAVQEIMIPASKAGLVIGKGGETIKQLQERAGVKMVMIQDGPQNTGADKPLRITGDPYKVQQAKEMVLELIRD

Variants of: B1
Assay: abundance fitness (aPCA) (normalised: wild type 0, dead -1); higher = more abundant; growth selection in yeast, the domain comes from the species named
Details: Homo sapiens
Answer false (0) if abundance fitness is under -0.06, and true (1) if it is -0.06 or more.

mutant.designation | class.name
G33Y | false (0)

Challenge: # check: abundance fitness of K65P is greater than or equal to -0.06
Response given: false (0)

Challenge: # check: abundance fitness of A64P is greater than or equal to -0.06
Response given: false (0)
